Tested on: green peach aphid (Myzus persicae)
Assay Protocol: Myzus test (MYZUPE spray treatment)
Type: in vivo
Cond: 500 g/ha, Chinese cabbage discs, after 6 days
Entries and their efficacy
Numeric answer only, unit % assumed.

[[record]]
smiles_repr = "COc1nccnc1-n1nc(C(C)(F)F)c(-c2ccc(Cl)c(C(F)(F)F)c2)c1N"
measurement_name = "efficacy"
unit_tag = "%"
readout_value = 100


IN: Test system green peach aphid (Myzus persicae); read-out efficacy; what value for COc1nccnc1-n1nc(C(F)(F)C(F)(F)OC)c(-c2cc(Cl)cc(C(F)(F)F)c2)c1N ?
OUT: 80

IN: Give the reported efficacy for COc1nccnc1-n1nc(C(F)(F)C(F)(F)F)c(-c2cc(F)cc(C(F)(F)F)c2)c1N (system: green peach aphid (Myzus persicae)).
OUT: 100

###

Tested on: adult engorged Boophilus microplus females of the SP-resistant Parkhurst strain
Assay Protocol: Boophilus microplus (dip)
Type: in vivo
Cond: Rhipicephalus microplus, 168 h, after 7 days, laying of fertile eggs, read-out: efficacy
Measured pest or weed control at 100 ppm of individual entries
Note: unit % is implicit; provide only the numeric part.

[[record]]
smiles_repr = "COc1nccnc1-n1nc(C(F)(F)F)c(-c2cc(Br)cc(Br)c2)c1N"
readout_value = 95

[[record]]
smiles_repr = "COc1nccnc1-n1nc(C)c(-c2cc(Cl)c3c(c2)OCO3)c1N"
readout_value = 100

[[record]]
smiles_repr = "COc1nccnc1-n1nc(C(F)(F)F)c(-c2ccc(Br)cc2)c1N"
readout_value = 100


IN: Suppose we examine the compound CCc1nn(-c2nccnc2OC)c(N)c1-c1cc(Cl)c2c(c1)OCO2 ; what pest or weed control at 100 ppm value has been reported?
OUT: 100

###

System: green peach aphid (Myzus persicae)
Assay Protocol: Myzus test (MYZUPE spray treatment)
Format: in vivo
Cond: Myzus persicae, 144 h, Chinese cabbage discs, after 6 days, read-out: efficacy
Listed here are compounds together with their documented pest or weed control at 500 g/ha.
Answer with a number only, understood to be in %.

Answered cases to consult:
[[record]]
compound = "COc1nccnc1-n1nc(C(F)(F)Cl)c(-c2cc(Cl)c3c(c2)OCO3)c1N [Ex. 169]"
measurement_name = "pest or weed control at 500 g/ha"
unit_tag = "%"
readout_value = 100

[[record]]
compound = "CCOc1nccnc1-n1nc(C(F)(F)F)c(-c2cc(C#N)c3c(c2)OCO3)c1N [Ex. 172]"
measurement_name = "pest or weed control at 500 g/ha"
unit_tag = "%"
readout_value = 100


Let's switch to this compound now.
IN: Fill in the blank: the reported pest or weed control at 500 g/ha of CCOc1nccnc1-n1nc(C(F)(F)F)c(-c2cc(Cl)c3c(c2)OCO3)c1N [Ex. 171] is ____.
OUT: 100

###

Listed here: items and their measured efficacy.
System: green peach aphid (Myzus persicae)
Assay Protocol: Myzus test (MYZUPE spray treatment)
Assay type: in vivo
Cond: 500 g/ha, Chinese cabbage discs, after 6 days
Numbers only; they are read as %.

Worked set:
[[record]]
smiles_repr = "COc1nccnc1-n1nc(C(F)(F)C(F)F)c(-c2cc(Cl)cc(C(F)(F)F)c2)c1N"
study_target = "green peach aphid (Myzus persicae)"
readout_value = 100

[[record]]
smiles_repr = "C=Cc1nn(-c2nccnc2OC)c(N)c1-c1cc(Cl)cc(C(F)(F)F)c1"
study_target = "green peach aphid (Myzus persicae)"
readout_value = 100

[[record]]
smiles_repr = "COc1nccnc1-n1nc(C(F)(F)F)c(-c2cc(Cl)cc(C(F)(F)F)c2)c1NCc1ccccc1"
study_target = "green peach aphid (Myzus persicae)"
readout_value = 80


IN: Notebook entry, green peach aphid (Myzus persicae) assay: efficacy of COc1ccc(CNc2c(-c3cc(Cl)cc(C(F)(F)F)c3)c(C(F)(F)F)nn2-c2nccnc2OC)cc1 = ?
OUT: 90

IN: Lab note: need efficacy for COc1nccnc1-n1nc(C(C)(C)F)c(-c2cc(Cl)cc(Cl)c2)c1N on green peach aphid (Myzus persicae), anyone have it?
OUT: 100

IN: Missing value: efficacy, green peach aphid (Myzus persicae), entry COc1nccnc1-n1nc(C(F)(F)C(F)(F)F)c(-c2cc(Cl)cc(C(F)(F)F)c2)c1N . Fill in?
OUT: 100

IN: Query the reported efficacy for green peach aphid (Myzus persicae); item: C=Cc1nn(-c2nccnc2OC)c(N)c1-c1cc(Cl)cc(Cl)c1
OUT: 100
